Assay: self-splicing fitness, log relative to wild type (ln ratio); higher = more splicing; Tetrahymena group I intron in knt gene, E. coli kanamycin selection, DiMSum; sequences stand for … in CUCUCU…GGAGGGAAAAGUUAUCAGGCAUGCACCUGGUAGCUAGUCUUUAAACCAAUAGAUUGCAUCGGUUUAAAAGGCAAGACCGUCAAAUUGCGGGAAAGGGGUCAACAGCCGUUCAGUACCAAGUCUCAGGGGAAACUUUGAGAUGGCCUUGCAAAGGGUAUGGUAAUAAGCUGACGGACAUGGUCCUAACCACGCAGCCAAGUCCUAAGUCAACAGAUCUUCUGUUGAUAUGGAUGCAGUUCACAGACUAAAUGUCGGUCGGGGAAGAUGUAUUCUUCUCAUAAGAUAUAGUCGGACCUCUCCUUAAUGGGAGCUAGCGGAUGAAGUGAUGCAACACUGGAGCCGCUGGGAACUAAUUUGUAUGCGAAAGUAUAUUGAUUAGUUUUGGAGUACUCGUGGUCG;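 further: selection with 25 µg/mL kanamycin versus none on LB agar overnight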
Settings: 37 °C
observable: self-splicing fitness (ln)
Reply briefly: the number, and no unit.

Would you please look over these solved cases?
{"columns": ["sequence.chain", "self-splicing fitness (ln)"],
 "data": [
  ["AUUAAGCAAUAUUACGCCUU", 0.373],
  ["AUUCAGCAAUAUUACGGACU", 0.414],
  ["UUUUAGCAAUAUUACGCGGC", -2.34],
  ["AGCAAGCAAUAUUACGCUCC", -1.58],
  ["CAUCAGCAAUAUUACGAACU", -0.499]
]}

Quick one: self-splicing fitness (ln) for "AUUCAGCAAUAUUACGACUU" ? 0.27

Quick one: self-splicing fitness (ln) for "CUAUAGCAAUAUUACGUACA" ? -2.05
